Experiment: Toxicity in human erythrocytes assessed as hemolysis upto 1.70 ug/mL
Format: cell-based, Erythrocyte
Conditions: read-out: Activity
measurement-kind: hemolysis at 1.7 ug/mL (%)
Note: unit % is implicit; provide only the numeric part.

Query: // lookup hemolysis at 1.7 ug/mL for C[C@@H]1[C@H](O)[C@@H](C)/C=C/C=C/C=C/C=C/C=C/C=C/C=C/[C@H](O[C@@H]2O[C@H](C)[C@@H](O)[C@H](N)[C@@H]2O)C[C@@H]2O[C@](O)(C[C@@H](O)C[C@@H](O)[C@H](O)CC[C@@H](O)C[C@@H](O)CC(=O)O[C@H]1C)C[C@H](O)[C@H]2C(=O)O (stereo in doubt)
Reply: 50
